B1: PBXIP1 (parent)
chain: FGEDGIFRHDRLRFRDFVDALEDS

Variants of: B1
test_details: protein stability index of a GFP-peptide fusion (GPS, HEK-293T) (PSI 1-6); higher = more stable;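 also: lentivirally expressed fusions sorted by FACS into six bins by GFP to DsRed ratio, PSI derived from sequencing read proportions per bin multiplied by bin number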
condition: c terminus: a fixed tail appended
assay_endpoint: protein stability index
# output: bare number, no unit

Please review the following examples before continuing.
> print(dat)
   mutant.name  value.measured
1         D19N            2.65
2         E22L            2.97
3         D23L            2.42
4          R8F            1.95
5         R13D            3.29

## Input Item `G2L` : provide protein stability index
## Output 2.96

## Input Item `S24G` : provide protein stability index
## Output 2.32

## Input Item `E3D` : provide protein stability index
## Output 3.01

## Input Item `D19L` : provide protein stability index
## Output 1.61
